# tested.on: HLA-B*07:02 (Homo sapiens, UniProt P01889)
# method.description: In vitro binding of neoantigens to class I MHC (UV peptide exchange, HLA class I ELISA)
# recorded.conditions: 100% = same binding affinity as positive control peptide
Exchange rate with the allele specific Pos peptide, HLA-B*07:02 by entry:
Expressed in %, but write only the number.

A selection of reference data follows.
> print(dat)
                                  substance  numeric.readout
1             P48 (YQFTFDLLI) [Peptide P48]             12.8
2  YEAGMTLGEKFRVGNCKHLKMTRP [Neoantigen P82]             12.9
3             P76 (YCMAAPMGL) [Peptide P76]             91.5

For P56 (RAKCKFSIL) [Peptide P56] , what is its reported Exchange rate with the allele specific Pos peptide, HLA-B*07:02?
82.5

For P97 (LMAQRLLLR) [Peptide P97] , what is its reported Exchange rate with the allele specific Pos peptide, HLA-B*07:02?
7

For P73 (LLERNSFEV) [Peptide P73] , what is its reported Exchange rate with the allele specific Pos peptide, HLA-B*07:02?
8.7

For SLYHREKQLIAMDSAI [Neoantigen P22] , what is its reported Exchange rate with the allele specific Pos peptide, HLA-B*07:02?
8.3
